# Tested on: Echinochloa crus-galli
# ASSAY METHOD TEXT: Post-emergence herbicidal effect
# Format: in vivo
# SETTINGS: 80 g/ha, post-emergence at one-leaf stage, assessed visually after about 3 weeks; 100% = plants have died, 0% = like control plants
Please go through the items and note down their Post-emergence action against ECHCG (herbicidal action in per cent).
Answers are plain numbers, in %.

For orientation, consider the following solved cases.
COMPOUND	NUMERIC RESULT
C#Cc1cc(Br)c(C2=C(O)C3(CCCC(OCCC)C3)NC2=O)c(OC)c1 (stereo not drawn) [Example 1.1.01]	100
CC#Cc1cc(Br)c(C2=C(OC(=O)OCC)C3(CCCC(OCCOC)C3)NC2=O)c(OCC)c1 (stereo not drawn) [Example 1.1.19]	100
CCOC(=O)OC1=C(c2c(Br)cc(C#CBr)cc2OC)C(=O)NC12CCCC(OCCOC)C2 (stereo not drawn) [Example 1.1.25]	90

State recorded Post-emergence action against ECHCG (herbicidal action in per cent) for all listed compounds.
1. C#Cc1cc(Br)c(C2=C(OC(=O)OCC)C3(CCCC(OCCC)C3)NC2=O)c(OC)c1 (stereo not drawn) [Example 1.1.03]
2. CC#Cc1cc(Br)c(C2=C(OC(=O)C(C)C)C3(CCCC(OCCOC)C3)NC2=O)c(OC)c1 (stereo not drawn) [Example 1.1.16]
3. CC#Cc1cc(Br)c(C2=C([O-])C3(CCCC(OCCOC)C3)NC2=O)c(OC)c1.[Na+] (stereo not drawn) [Example 1.1.14]
4. CC#Cc1cc(Br)c(C2=C(O)C3(CCCC(OCCOC)C3)NC2=O)c(OC)c1 (stereo not drawn) [Example 1.1.13]
5. CC#Cc1cc(Br)c(C2=C(O)C3(CCCC(OCCC)C3)NC2=O)c(OC)c1 (stereo not drawn) [Example 1.1.09]
6. CC#Cc1cc(Br)c(C2=C([O-])C3(CCCC(OCCC)C3)NC2=O)c(OC)c1.[Na+] (stereo not drawn) [Example 1.1.10]

Reply |
1: 90; 2: 100; 3: 90; 4: 100; 5: 90; 6: 100

State recorded Post-emergence action against ECHCG (herbicidal action in per cent) for all listed compounds.
1. CC#Cc1cc(Br)c(C2=C(OC(=O)OCC)C3(CCCC(OCCOC)C3)NC2=O)c(OC)c1 (stereo not drawn) [Example 1.1.15]
2. CC#Cc1cc(Br)c(C2=C([O-])C3(CCCC(OCCOC)C3)NC2=O)c(OCC)c1.[Na+] (stereo not drawn) [Example 1.1.18]
3. C#Cc1cc(Br)c(C2=C([O-])C3(CCCC(OCCOC)C3)NC2=O)c(OC)c1.[Na+] (stereo not drawn) [Example 1.1.06]
4. CC#Cc1cc(Br)c(C2=C(O)C3(CCCC(OCCOC)C3)NC2=O)c(OCC)c1 (stereo not drawn) [Example 1.1.17]
5. C#Cc1cc(Br)c(C2=C(O)C3(CCCC(OCCOC)C3)NC2=O)c(OC)c1 (stereo not drawn) [Example 1.1.05]

Reply |
1. 100
2. 100
3. 100
4. 100
5. 80

Ask | Which Post-emergence action against ECHCG (herbicidal action in per cent) value is on record for C#Cc1cc(Br)c(C2=C(OC(=O)OCC)C3(CCCC(OCCOC)C3)NC2=O)c(OC)c1 (stereo not drawn) [Example 1.1.07] ?
Reply | 80

###

# System: Alopecurus myosuroides
# ASSAY METHOD TEXT: Post-emergence herbicidal effect
# Assay type: in vivo
# SETTINGS: 80 g/ha, post-emergence at one-leaf stage, assessed visually after about 3 weeks; 100% = plants have died, 0% = like control plants
MEASUREMENT LABEL: Post-emergence action against ALOMY (herbicidal action in per cent) (%)
One number for each entry, in %.

MOLECULE	UNIT TAG	NUMERIC RESULT
CC#Cc1cc(Br)c(C2=C([O-])C3(CCCC(OCCC)C3)NC2=O)c(OC)c1.[Na+] (stereo not shown)	%	90

State recorded Post-emergence action against ALOMY (herbicidal action in per cent) for all listed molecules.
1. CC#Cc1cc(Br)c(C2=C([O-])C3(CCCC(OCCOC)C3)NC2=O)c(OCC)c1.[Na+] (stereo not shown)
2. CC#Cc1cc(Br)c(C2=C(OC(=O)OCC)C3(CCCC(OCCOC)C3)NC2=O)c(OC)c1 (stereo not shown)

Reply |
1: 100; 2: 100

State recorded Post-emergence action against ALOMY (herbicidal action in per cent) for all listed molecules.
1. C#Cc1cc(Br)c(C2=C(OC(=O)C(C)C)C3(CCCC(OCCOC)C3)NC2=O)c(OC)c1 (stereo not shown)
2. CCOC(=O)OC1=C(c2c(Br)cc(C#CBr)cc2OC)C(=O)NC12CCCC(OCCOC)C2 (stereo not shown)
3. CC#Cc1cc(Br)c(C2=C(OC(=O)OCC)C3(CCCC(OCCOC)C3)NC2=O)c(OCC)c1 (stereo not shown)
4. C#Cc1cc(Br)c(C2=C([O-])C3(CCCC(OCCOC)C3)NC2=O)c(OC)c1.[Na+] (stereo not shown)

Reply |
1. 90
2. 90
3. 100
4. 100

###

# System: Echinochloa crus-galli
# ASSAY METHOD TEXT: Post-emergence herbicidal effect
# Format: in vivo
# SETTINGS: 80 g/ha, post-emergence at one-leaf stage, assessed visually after about 3 weeks; 100% = plants have died, 0% = like control plants
Please go through the items and note down their Post-emergence action against ECHCG (herbicidal action in per cent).
Answers are plain numbers, in %.

For orientation, consider the following solved cases.
COMPOUND	NUMERIC RESULT
C#Cc1cc(Br)c(C2=C(OC(=O)C(C)C)C3(CCCC(OCCOC)C3)NC2=O)c(OC)c1 (stereo not shown)	80
C#Cc1cc(Br)c(C2=C([O-])C3(CCCC(OCCC)C3)NC2=O)c(OC)c1.[Na+] (stereo not shown)	100
C#Cc1cc(Br)c(C2=C(OC(=O)C(C)C)C3(CCCC(OCCC)C3)NC2=O)c(OC)c1 (stereo not shown)	80

Lab note: next compound to report on.
Ask | Which Post-emergence action against ECHCG (herbicidal action in per cent) value is on record for COCCOC1CCCC2(C1)NC(=O)C(c1c(Br)cc(C#CBr)cc1OC)=C2O (stereo not shown) ?
Reply | 90

###

Please go through the items and note down their Post-emergence action against ALOMY (herbicidal action in per cent).
# Test system: Alopecurus myosuroides
# ASSAY METHOD TEXT: Post-emergence herbicidal effect
# Type: in vivo
# SETTINGS: 80 g/ha, post-emergence at one-leaf stage, assessed visually after about 3 weeks; 100% = plants have died, 0% = like control plants
Answers are plain numbers, in %.

MOLECULE	TARGET UNDER TEST	NUMERIC RESULT
C#Cc1cc(Br)c(C2=C(OC(=O)OCC)C3(CCCC(OCCOC)C3)NC2=O)c(OC)c1 (stereo not shown) [Example 1.1.07]	Alopecurus myosuroides	80
CC#Cc1cc(Br)c(C2=C(O)C3(CCCC(OCCC)C3)NC2=O)c(OC)c1 (stereo not shown) [Example 1.1.09]	Alopecurus myosuroides	90
CC#Cc1cc(Br)c(C2=C(OC(=O)C(C)C)C3(CCCC(OCCOC)C3)NC2=O)c(OC)c1 (stereo not shown) [Example 1.1.16]	Alopecurus myosuroides	100

Lab note: next molecule to report on.
Ask | Which Post-emergence action against ALOMY (herbicidal action in per cent) value is on record for C#Cc1cc(Br)c(C2=C([O-])C3(CCCC(OCCC)C3)NC2=O)c(OC)c1.[Na+] (stereo not shown) [Example 1.1.02] ?
Reply | 100

###

# Tested on: Setaria viridis
# ASSAY METHOD TEXT: Post-emergence herbicidal effect
# Assay type: in vivo
# SETTINGS: 80 g/ha, post-emergence at one-leaf stage, assessed visually after about 3 weeks; 100% = plants have died, 0% = like control plants
# Method: Seeds of monocotyledonous and dicotyledonous weed and crop plants are laid out in sandy loam soil in wood-fiber pots, covered with soil and cultivated in a greenhouse under good growth conditions. 2 to 3 weeks after sowing, the test plants are treated at the one-leaf stage. […]
MEASUREMENT LABEL: Post-emergence action against SETVI (herbicidal action in per cent) (%)
Answers are plain numbers, in %.

COMPOUND	NUMERIC RESULT
C#Cc1cc(Br)c(C2=C(OC(=O)OCC)C3(CCCC(OCCOC)C3)NC2=O)c(OC)c1 (stereo not drawn)	90
CC#Cc1cc(Br)c(C2=C(OC(=O)OCC)C3(CCCC(OCCOC)C3)NC2=O)c(OCC)c1 (stereo not drawn)	100

Ask | Which measured Post-emergence action against SETVI (herbicidal action in per cent) belongs to CC#Cc1cc(Br)c(C2=C([O-])C3(CCCC(OCCOC)C3)NC2=O)c(OC)c1.[Na+] (stereo not drawn) , tested on Setaria viridis?
Reply | 90
